test system: metabolism of retinoic acid in human breast cancer cells; assay: Inhibition of retinoic acid (RA) metabolism (Example C.1); type: cell-based; details: MCF-7 human breast cancer cells, 3H-RA as substrate; concentration needed to reduce the amount of metabolites to 50% of the control
pIC50: −log10 of the molar value.
experimental.endpoint: pIC50

>>> value_measured("CCC(CC)C(O)(c1ccc(NC(C)=O)cc1)c1cncn1C (racemic)")
9.84
>>> value_measured("CCC(CC)C(c1ccc(NC(=O)Cc2ccc(OC)c(Cl)c2)cc1)n1ccnc1 (racemic)")
9.17
>>> value_measured("Cc1noc(C)c1C(=O)Nc1ccc(C(C(C)C)n2ccnc2)cc1 (racemic)")
8.55
>>> value_measured("CC(C)C(c1ccc(NC(=O)Nc2ccc(F)cc2F)cc1)n1ccnc1 (racemic)")
8.65

I. CC(C)C(c1ccc(NC(=O)c2ccccc2)cc1)n1ccnc1 (racemic)
II. CCOc1ccc(CC(=O)Nc2ccc(C(C(CC)CC)n3ccnc3)cc2)cc1C (racemic)
III. CCOc1c(F)c(F)c(/C=C(\C)C(=O)Nc2ccc(C(C(C)C)n3ccnc3)cc2)c(F)c1F (racemic)
IV. CC(O)C(=O)Nc1ccc(C(C(C)C)n2ccnc2)cc1 (centres unmarked)
input: Write the entries in order, lowest recorded pIC50 first. Kindly provide the labels arranged according to the requested ordering.
output: IV, III, I, II
(IV: 7.12, III: 7.87, I: 8.76, II: 9.71)

* * *

system: metabolism of retinoic acid in human breast cancer cells; assay: Inhibition of retinoic acid (RA) metabolism (Example C.1); type: cell-based; settings: MCF-7 human breast cancer cells, 3H-RA as substrate; concentration needed to reduce the amount of metabolites to 50% of the control
experimental.endpoint: IC50

Example cases with answers are listed next.
>>> value_measured("O=C(Cc1ccc(Cl)cc1)Nc1ccc(C(c2cccc(C(F)(F)F)c2)n2ccnc2)cc1 (stereo not drawn)")
"> 100 nM"
>>> value_measured("CCC(CC)C(c1ccc(NC(=O)Cc2ccc3nc(N)sc3c2)cc1)n1ccnc1 (racemic)")
"< 0.01 nM"

input: Note IC50 for the molecule shown: CC(=Cc1ccccc1)C(=O)Nc1ccc(C(C(C)c2ccccc2)n2ccnc2)cc1 (single isomer, unassigned)
output: > 100 nM

* * *

test system: metabolism of retinoic acid in human breast cancer cells; experiment: Inhibition of retinoic acid (RA) metabolism (Example C.1); assay type: cell-based; details: MCF-7 human breast cancer cells, 3H-RA as substrate; concentration needed to reduce the amount of metabolites to 50% of the control
experimental.endpoint: IC50 (nM)

Example cases with answers are listed next.
>>> value_measured("CC(C)C(c1ccc(NC(=O)C(F)=Cc2ccccc2)cc1)n1cncn1 (racemic)")
86.5
>>> value_measured("C/C(=C\\c1ccc(F)c(Br)c1)C(=O)Nc1ccc(C(C(C)C)n2ccnc2)cc1 (racemic)")
6.61
>>> value_measured("COc1ccc(/C=C(\\C)C(=O)Nc2ccc(C(C(C)C)n3ccnc3)cc2)cc1 (racemic)")
1.58
>>> value_measured("COc1ccc(CC(=O)Nc2ccc(C(C(C)N(C)C)n3cncn3)cc2)cc1Cl (single isomer, unassigned)")
1.28
>>> value_measured("CCC(CC)C(c1ccc(NC(=O)Cc2ccc(Cl)cc2)cc1)n1ccnc1 (racemic)")
0.28
>>> value_measured("COCC(C)C(c1ccc(NC(=O)Cc2ccc(OC)c(OC)c2)cc1)n1ccnc1 (single isomer, unassigned) [Compound 405]")
3.68
>>> value_measured("C/C(=C\\c1cccc2ccccc12)C(=O)Nc1ccc(C(C(C)C)n2ccnc2)cc1 (racemic)")
2.7
>>> value_measured("CCOc1ccc(CCC(=O)Nc2ccc(C(C(C)N(C)C)n3ccnc3)cc2)cc1 (single isomer, unassigned)")
2.04

1. CC(C)C(c1ccc(NC(=O)c2ccncc2)cc1)n1ccnc1 (racemic)
2. COc1ccc(CC(=O)Nc2ccc(C(C(C)N(C)C)n3ccnc3)cc2)cc1Cl (single isomer, unassigned)
input: Hello, I am sorting some records. Could you say if 1 or 2 has the smaller IC50 value? Lab log: write the label of the selected item as the result.
output: 2
(2: 0.0829 nM, 1: 7.07 nM)
